Data credit: ChEMBL document CHEMBL1122812

System: Klebsiella pneumoniae
Test: In vitro minimum inhibitory concentration against growth of Klebsiella pneumoniae strain 39645
Format: functional
quantity_name: MIC (µg/mL)

>  <structure_smiles_string>
CCn1cc(C(=O)O)c(=O)c2cc(F)c(N3CCNCC3)cc21

>  <quantity_unit>
µg/mL

>  <measured_result>
0.5

$$$$
>  <structure_smiles_string>
CNn1cc(C(=O)O)c(=O)c2cc(F)c(N3CCN(C)CC3)cc21

>  <quantity_unit>
µg/mL

>  <measured_result>
0.25

$$$$
>  <structure_smiles_string>
CNn1cc(C(=O)O)c(=O)c2cc(F)c(N3CCNCC3)cc21

>  <quantity_unit>
µg/mL

>  <measured_result>
1

$$$$
>  <structure_smiles_string>
CCn1cc(C(=O)O)c(=O)c2cc(F)c(N3CCN(C)CC3)cc21

>  <quantity_unit>
µg/mL

>  <measured_result>
0.5

$$$$
